Target: human TLR 8 protein in HEK-blue hTLR 8 tool cell line (Homo sapiens)
Construct: expressed in transfected cells; host or cells: HEK293 (HEK-Blue hTLR8)
Sequence (Q9NR97 27-1041): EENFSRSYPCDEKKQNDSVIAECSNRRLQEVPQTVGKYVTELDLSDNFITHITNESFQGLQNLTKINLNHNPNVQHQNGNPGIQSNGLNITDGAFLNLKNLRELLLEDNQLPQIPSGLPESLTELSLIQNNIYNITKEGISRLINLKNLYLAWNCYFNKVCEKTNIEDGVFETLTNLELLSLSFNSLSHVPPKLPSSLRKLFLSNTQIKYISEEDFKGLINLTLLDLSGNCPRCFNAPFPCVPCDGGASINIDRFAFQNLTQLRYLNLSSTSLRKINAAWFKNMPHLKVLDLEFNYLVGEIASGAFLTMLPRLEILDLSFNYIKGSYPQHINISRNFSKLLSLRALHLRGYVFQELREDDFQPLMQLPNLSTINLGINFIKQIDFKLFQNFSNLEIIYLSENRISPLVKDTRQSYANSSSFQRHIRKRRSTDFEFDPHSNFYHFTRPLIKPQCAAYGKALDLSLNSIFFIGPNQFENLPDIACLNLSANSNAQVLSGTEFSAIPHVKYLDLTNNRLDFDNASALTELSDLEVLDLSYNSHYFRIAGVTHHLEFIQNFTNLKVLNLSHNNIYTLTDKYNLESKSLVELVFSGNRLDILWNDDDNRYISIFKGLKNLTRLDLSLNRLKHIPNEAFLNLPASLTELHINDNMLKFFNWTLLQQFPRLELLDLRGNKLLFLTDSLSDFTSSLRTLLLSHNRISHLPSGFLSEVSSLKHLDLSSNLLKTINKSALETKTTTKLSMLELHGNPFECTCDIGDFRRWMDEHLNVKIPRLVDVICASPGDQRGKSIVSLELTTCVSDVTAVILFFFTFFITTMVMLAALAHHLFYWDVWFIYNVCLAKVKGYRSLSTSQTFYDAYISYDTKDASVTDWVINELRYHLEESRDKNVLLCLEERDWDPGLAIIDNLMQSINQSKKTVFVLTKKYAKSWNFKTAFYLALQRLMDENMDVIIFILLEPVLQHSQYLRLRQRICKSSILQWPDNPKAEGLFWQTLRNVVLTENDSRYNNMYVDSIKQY
Test: TLR8 stimulation determined by HEK-Blue Detection (NF-κB/SEAP reporter)
Type: cell-based
Conditions: HEK-Blue hTLR8 cells, 16 h incubation, relative to maximum activation by Resiquimod or motolimod; read-out: EC50 (nmol)
pEC50: −log10 of the molar value.
Lab note: anything with pEC50 at or over 7 counts as true (1); the rest go in false (0).

[in] I'd appreciate it if you could say whether `CCC[C@H](C)Oc1nc(N)c2ncc(CC3CC4(CCNCC4)C3)n2n1` has pEC50 at least equal to 7.
[out] false (0)

[in] hey, is pEC50 for this one >= 7? `CCC[C@H](C)Oc1nc(N)c2ncc(CC3CCNCC3)n2n1`
[out] true (1)

[in] Reported pEC50 reaches at least 7 for CCC[C@H](C)Oc1nc(N)c2ncc(CC3CCCN3)n2n1 (stereo partly shown) ?
[out] true (1)

[in] Check if pEC50 >= 7 (inclusive). Item: `CCCCCc1nc(N)c2ncc(CC3CCNCC3)n2n1`
[out] false (0)

[in] pEC50 >= 7 for CCC[C@H](C)Oc1nc(N)c2ncc(CC3CC4CCC(C3)N4)n2n1 (stereo partly shown) ?
[out] false (0)

[in] Does CCCC(C)Oc1nc(N)c2ncc(CN3CCNC[C@H]3C)n2n1 (stereo partly shown) have a reported pEC50 of at least 7?
[out] false (0)

[in] Please check the record `CCC[C@H](C)Oc1nc(N)c2ncc(C[C@H]3C[C@@H](N)C3)n2n1` and state if its pEC50 is at or above 7.
[out] true (1)
